target: FGFR2 (Homo sapiens (Human), UniProt P21802); assay: FGFR2 Biochemical Caliper Assay
Sequence (P21802 22-821): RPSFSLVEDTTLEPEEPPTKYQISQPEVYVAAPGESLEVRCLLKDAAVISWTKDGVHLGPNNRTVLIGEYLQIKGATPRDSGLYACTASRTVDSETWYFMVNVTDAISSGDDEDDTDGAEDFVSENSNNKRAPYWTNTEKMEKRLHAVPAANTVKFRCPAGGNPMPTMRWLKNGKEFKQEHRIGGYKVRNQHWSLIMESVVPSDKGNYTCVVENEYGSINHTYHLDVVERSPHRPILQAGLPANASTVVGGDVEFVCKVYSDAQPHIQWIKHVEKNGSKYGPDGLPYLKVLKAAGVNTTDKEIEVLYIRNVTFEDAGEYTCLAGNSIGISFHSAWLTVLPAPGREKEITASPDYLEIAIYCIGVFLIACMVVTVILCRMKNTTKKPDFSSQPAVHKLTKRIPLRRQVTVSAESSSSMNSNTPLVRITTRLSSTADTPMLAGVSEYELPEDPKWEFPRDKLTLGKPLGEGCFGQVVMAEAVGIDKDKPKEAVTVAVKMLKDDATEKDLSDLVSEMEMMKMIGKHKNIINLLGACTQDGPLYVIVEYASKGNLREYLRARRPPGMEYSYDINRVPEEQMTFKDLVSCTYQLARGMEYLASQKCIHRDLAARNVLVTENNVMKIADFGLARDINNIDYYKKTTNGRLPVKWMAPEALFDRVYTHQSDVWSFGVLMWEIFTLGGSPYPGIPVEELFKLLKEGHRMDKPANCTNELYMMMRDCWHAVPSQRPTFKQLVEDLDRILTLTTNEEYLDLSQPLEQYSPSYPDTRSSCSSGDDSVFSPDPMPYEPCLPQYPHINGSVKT
metric: IC50

Known IC50 results, listed for orientation:
• C=C(C)C(=O)Nc1ccc(-c2c(-c3ccc(OCC4CCCC4)cc3)c3c(N)ncnc3n2C)cc1 = 250 to 1000 nM
• C=C(C)C(=O)Nc1ccc(-c2c(-c3ccc(Cn4cc(C)cn4)cc3)c3c(N)ncnc3n2C)cc1 = 1000 to 100000 nM
• C=C(C)C(=O)Nc1ccc(-c2c(-c3ccn4ccnc4c3)c3c(N)ncnc3n2C)cc1 = 1000 to 100000 nM
• C=C(C)C(=O)Nc1ccc(-c2c(C3=CCCN(C(C)=O)C3)c3c(N)ncnc3n2C)cc1 = 1000 to 100000 nM

Request: Entry under review: C=CC(=O)N1CCC(c2c(-c3cnn(C4CCOC4)c3)c3c(N)ncnc3n2C)C1 (centres unmarked) . Reported IC50?
Result: 1000 to 100000 nM

Request: Quick one: IC50 of `C=C(C)C(=O)Nc1ccc(-c2c(-c3ccc(C(=O)N4CC5CCC4CC5)cc3)c3c(N)ncnc3n2C)cc1` ?
Result: < 100 nM

* * *

target: FGFR2 (Homo sapiens (Human), UniProt P21802); test: Biochemical FGFR2 Caliper assay
pIC50: −log10 of the molar value.
// values below are reported pIC50

Some molecules with recorded pIC50:
• C=C(C)C(=O)Nc1ccc(-c2[nH]c3ncnc(N)c3c2-c2ccc(Oc3ncc(F)cn3)c(F)c2)cc1 [Example 815] = 6.00 to 6.60
• C=C(C)C(=O)Nc1ccc(-c2c(C3=CC[C@@H](C(=O)N4CCc5ccccc54)CC3)c3c(N)ncnc3n2C)cc1 (single isomer, unassigned) [Example 985] = 6.00 to 6.60

Next molecule, pIC50 to be filled in.
Request: Query (molecule): C=C(C)C(=O)Nc1ccc(-c2c(C3=CC[C@]4(CC3)Cc3ccc(C)nc3C4=O)c3c(N)ncnc3n2C)cc1 (single isomer, unassigned) [Example 1367] ; field requested: pIC50
Result: > 7.00

* * *

molecular target: FGFR2 (Homo sapiens (Human), UniProt P21802); test: FGFR2 Biochemical Caliper Assay
metric: IC50

Recorded results for 10 compounds are shown here.
• C=C(C)C(=O)Nc1ccc(-c2c(-c3cnn(CC4CCNCC4)c3)c3c(N)ncnc3n2C)cc1 = 1000 to 100000 nM
• C=CC(=O)N1CCC(c2nnc(-c3c(-c4ccc(Oc5cccc(C)n5)cc4)c4c(N)ncnc4n3C)o2)CC1 = 100 to 250 nM
• C=C(C)C(=O)Nc1ccc(-c2c(-c3ccc(C(=O)N4CCCC4)cc3)c3c(N)ncnc3n2C)c(Cl)c1 = < 100 nM
• C=CC(=O)N1CCC(n2cc(-c3c(-c4ccc(Oc5cccc(C)n5)cc4)c4c(N)ncnc4n3C)c(C)n2)CC1 = < 100 nM
• C=C(C)C(=O)N1CC=C(c2c(-c3ccc(Oc4ncccn4)cc3)c3c(N)ncnc3n2C)C1 = 1000 to 100000 nM
• C=CC(=O)N1CCC(N2CC(c3c(-c4ccc(Oc5cccc(C)n5)cc4)c4c(N)ncnc4n3C)C2)CC1 = 1000 to 100000 nM
• C=CC(=O)N1CCC(n2cc(-c3c(-c4ccc(OC)cc4)c4c(N)ncnc4n3C)cn2)CC1 = < 100 nM
• C=C(C)C(=O)Nc1ccc(-c2c(-c3ccc(Oc4nccc(C)n4)c(F)c3)c3c(N)ncnc3n2C)c(F)c1 = < 100 nM
• C=C(C)C(=O)Nc1ccc(-c2c(-c3ccc(Oc4cccc(C)n4)c(C#N)c3)c3c(N)ncnc3n2C)cc1 = < 100 nM
• C=C(C)C(=O)Nc1ccc(-c2c(-c3ccc(C(=O)NCC(F)F)cc3)c3c(N)ncnc3n2C)cc1 = < 100 nM

Request: Looking for the measured IC50 of C=C(C)C(=O)Nc1ccc(-c2c(-c3ccc4c(c3)COC4c3cccc(C)n3)c3c(N)ncnc3n2C)cc1 (centres unmarked) , can you help?
Result: 100 to 250 nM

Request: What value of measured IC50 is listed for C=C(C)C(=O)Nc1ccc(-c2c(-c3ccc(C(=O)NCC4CC(O)C4)cc3)c3c(N)ncnc3n2C)cc1 (centres unmarked) ?
Result: 100 to 250 nM

Request: What value of IC50 has been recorded for this entry: `C=C(C)C(=O)Nc1ccc(-c2c(-c3ccc(Oc4nccc(Cl)n4)c(F)c3)c3c(N)ncnc3n2C)cc1`
Result: < 100 nM

Request: Query (compound): `C=C(C)C(=O)Nc1ccc(-c2c(-c3ccc(Oc4nnc(C)o4)cc3)c3c(N)ncnc3n2C)cc1` ; field requested: IC50
Result: 1000 to 100000 nM

Request: // returns reported IC50 for input C=C(C)C(=O)Nc1ccc(-c2c(-c3ccc(C(=O)NC4CCOC4)c(OC)c3)c3c(N)ncnc3n2C2COC2)cc1 (centres unmarked)
Result: 100 to 250 nM

Request: Given the compound C=CC(=O)N1CCC(c2c(-c3ccc(Oc4ncccn4)cc3)c3c(N)ncnc3n2C2CC(O)C2)C1 (centres unmarked) , what is its reported IC50?
Result: < 100 nM

Request: Look up IC50 for this compound: `C=C(C)C(=O)Nc1ccc(-c2c(-c3ccc(OCC4CC4)cc3)c3c(N)ncnc3n2C)cc1`
Result: 100 to 250 nM

Request: Form field: reported IC50 of `C=C(C)C(=O)Nc1ccc(-c2c(-c3ccc(Oc4nccc(C)n4)cc3)c3c(N)ncnc3n2C)c(CC)c1`
Result: < 100 nM

Request: Can you share its IC50? I mean this compound: `C=CC(=O)N1CCC(n2cc(-c3c(-c4ccc(F)c(OC)c4)c4c(N)ncnc4n3C)cn2)CC1`
Result: 250 to 1000 nM

Request: // query IC50 value for entry `C=C(C)C(=O)Nc1ccc(-c2c(-c3ccc(C(=O)N4CCCC4)cc3Cl)c3c(N)ncnc3n2C)cc1`
Result: 1000 to 100000 nM

Request: I am curious: what IC50 value has been reported for C=C(C)C(=O)Nc1ccc(-c2c(-c3ccc([S+]([O-])C4CC4)cc3)c3c(N)ncnc3n2C)cc1 (centres unmarked) ?
Result: 250 to 1000 nM

Request: Find the recorded IC50 belonging to `C=CC(=O)N1CC[C@@H](c2[nH]c3ncnc(N)c3c2-c2ccc(Oc3ncccn3)cc2)C1` and report it.
Result: < 100 nM

Request: Entry `C=C(C)C(=O)Nc1ccc(-c2c(-c3ccc(C(=O)N(C)c4ncccn4)cc3)c3c(N)ncnc3n2C)cc1` has what IC50?
Result: 1000 to 100000 nM

Request: Fill in the blank: the reported IC50 of `C=C(C)C(=O)Nc1ccc(-c2c(-c3ccc(Oc4cnn(C)c4)cc3)c3c(N)ncnc3n2C)cc1` is ____.
Result: 1000 to 100000 nM

Request: Which IC50 reading was recorded for the compound C=CC(=O)N1CCC(c2c(-c3cnn(CC4CCNCC4)c3)c3c(N)ncnc3n2C)C1 (centres unmarked) ?
Result: 100 to 250 nM

Request: Quick check: IC50 of C=C(C)C(=O)Nc1ccc(-c2c(-c3ccc(C(=O)NCC4COCCN4C)cc3)c3c(N)ncnc3n2C)cc1 (centres unmarked) ?
Result: 1000 to 100000 nM

Request: Look up IC50: `C=C(C)C(=O)Nc1ccc(-c2c(-c3cc(OC)ncc3F)c3c(N)ncnc3n2C)cc1`
Result: 1000 to 100000 nM

Request: Name the reported IC50 value associated with the compound `C=C(C)C(=O)Nc1ccc(-c2c(-c3ccc(S(=O)(=O)N(C)CC(F)(F)F)cc3)c3c(N)ncnc3n2C)cc1`
Result: 250 to 1000 nM

Request: GET /values?readout=IC50&item= C=CC(=O)N1CCC(c2[nH]c3ncnc(N)c3c2-c2ccc(C(=O)N3CCCC3)cc2)C1 (centres unmarked)
Result: < 100 nM
